Data origin: PubChem BioAssay AID2060495

Tested on: 521955-158-R2-J5-PDC complex spheroid viability
Test: Anticancer human tumor 521955-158-R2-J5-PDC patient-derived pancreatic carcinoma cell line growth inhibition [GQUAD]
Settings: curve of first compound; second compound 0.1 µM
# key: entry, value: IC50
readoutName: IC50 (nM)

molecule | readoutName | modifier | reportedResult
Cc1cccc(N(C)C(=O)C2C(O)CCN2c2nc(C)cc(C(F)(F)F)c2C#N)c1 (stereo not given) + Cc1[nH]c2ccc(F)cc2c1-c1nc2c3cccnc3c3ncccc3c2[nH]1 | IC50 | > | 10000
CCc1c2c(nc3ccc(O)cc13)-c1cc3c(c(=O)n1C2)COC(=O)[C@]3(O)CC + Cc1[nH]c2ccc(F)cc2c1-c1nc2c3cccnc3c3ncccc3c2[nH]1 | IC50 | = | 1.57
O=C(c1cc(Cc2n[nH]c(=O)c3ccccc23)ccc1F)N1CCN(C(=O)C2CC2)CC1 + Cc1[nH]c2ccc(F)cc2c1-c1nc2c3cccnc3c3ncccc3c2[nH]1 | IC50 | > | 10000
C=CCn1c(=O)c2cnc(Nc3ccc(N4CCN(C)CC4)cc3)nc2n1-c1cccc(C(C)(C)O)n1 + Cc1cnc(CNC(=O)c2c(=O)c3ccc(N4CCCN(C)CC4)nc3n3c2sc2ccccc23)cn1 | IC50 | = | 124
CC[C@@]1(O)C(=O)OCc2c1cc1n(c2=O)Cc2cc3c(CN(C)C)c(O)ccc3nc2-1 + Cc1cnc(CNC(=O)c2c(=O)c3ccc(N4CCCN(C)CC4)nc3n3c2sc2ccccc23)cn1 | IC50 | = | 27.8

----------
# Lookup of reported IC50 keyed by entry
System: 521955-158-R2-J5-PDC complex spheroid viability
Assay: Anticancer human tumor 521955-158-R2-J5-PDC cell line growth inhibition [GQUAD];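 note: spheroids exposed to agents for one week before reading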
Conditions: curve of first compound; second compound 0.1 µM
Description: DNA G-quadruplex Stabilizer Agents in Combinations in Complex Spheroids A high-throughput screen of multi-cell type tumor spheroids was designed to identify active combinations of DNA G-quadruplex stabilizer agents and targeted small molecules. […] Compounds. […] If the clinical Cmax for an agent had not been determined, the highest concentration tested was 10 microM. […]

compound | unitOfMeasure | modifier | IC50
CCCS(=O)(=O)Nc1ccc(F)c(C(=O)c2c[nH]c3ncc(-c4ccc(Cl)cc4)cc23)c1F + Cc1[nH]c2ccc(F)cc2c1-c1nc2c3cccnc3c3ncccc3c2[nH]1 | nM | > | 10000
Cn1ncnc1[C@H]1c2n[nH]c(=O)c3cc(F)cc(c23)N[C@@H]1c1ccc(F)cc1 + Cc1cnc(CNC(=O)c2c(=O)c3ccc(N4CCCN(C)CC4)nc3n3c2sc2ccccc23)cn1 | nM | = | 316
CC1COCCN1c1cc(C2(S(C)(=N)=O)CC2)nc(-c2ccnc3[nH]ccc23)n1 (stereo unspecified) + Cc1cnc(CNC(=O)c2c(=O)c3ccc(N4CCCN(C)CC4)nc3n3c2sc2ccccc23)cn1 | nM | = | 543
C#Cc1c(F)ccc2cc(O)cc(-c3ncc4c(N5CC6CCC(C5)N6)nc(OCC56CCCN5CC(F)C6)nc4c3F)c12 (stereo unspecified) + Cc1cnc(CNC(=O)c2c(=O)c3ccc(N4CCCN(C)CC4)nc3n3c2sc2ccccc23)cn1 | nM | < | 31.6
O=c1[nH]cc(F)c(=O)[nH]1 + CN(C)c1ccc(Nc2c3ccc(NC(=O)CCN4CCCC4)cc3nc3cc(NC(=O)CCN4CCCC4)ccc23)cc1 | nM | > | 10000
Cc1[nH]c2ccccc2c1CCNCc1ccc(/C=C/C(=O)NO)cc1 + Cc1[nH]c2ccc(F)cc2c1-c1nc2c3cccnc3c3ncccc3c2[nH]1 | nM | = | 156

----------
System: 521955-158-R2-J5-PDC complex spheroid viability
Assay: Anticancer human tumor 521955-158-R2-J5-PDC cell line growth inhibition [GQUAD];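 note: spheroids exposed to agents for one week before reading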;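 for viability, T/C: 100% = DMSO vehicle control viability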
Settings: second compound 0.1 µM; first compound 0.0316 µM; stronger effect = lower value
Labelling: viability, T/C reported below 70% becomes Y; at or above becomes N.

compound | systemName | classAssignment
CC1COCCN1c1cc(C2(O)CC3CCC(C2)O3)c2cnn(-c3ccn[nH]3)c2n1 (stereo not drawn) + CN(C)c1ccc(Nc2c3ccc(NC(=O)CCN4CCCC4)cc3nc3cc(NC(=O)CCN4CCCC4)ccc23)cc1 | 521955-158-R2-J5-PDC complex spheroid viability | Y
C=CCn1c(=O)c2cnc(Nc3ccc(N4CCN(C)CC4)cc3)nc2n1-c1cccc(C(C)(C)O)n1 + CN(C)c1ccc(Nc2c3ccc(NC(=O)CCN4CCCC4)cc3nc3cc(NC(=O)CCN4CCCC4)ccc23)cc1 | 521955-158-R2-J5-PDC complex spheroid viability | N
Nc1ccn(C2OC(CO)C(O)C2(F)F)c(=O)n1 (stereo not drawn) + Cc1cnc(CNC(=O)c2c(=O)c3ccc(N4CCCN(C)CC4)nc3n3c2sc2ccccc23)cn1 | 521955-158-R2-J5-PDC complex spheroid viability | Y
CC1COCCN1c1cc(-c2ccnn2C)c2ccnc(-c3ccn[nH]3)c2n1 (stereo not drawn) + Cc1[nH]c2ccc(F)cc2c1-c1nc2c3cccnc3c3ncccc3c2[nH]1 | 521955-158-R2-J5-PDC complex spheroid viability | N
CC(C)n1c(=O)n(C)c2cnc3cc(F)c(-c4ccc(OCCCN5CCCCC5)nc4)cc3c21 + Cc1[nH]c2ccc(F)cc2c1-c1nc2c3cccnc3c3ncccc3c2[nH]1 | 521955-158-R2-J5-PDC complex spheroid viability | N
C=CCn1c(=O)c2cnc(Nc3ccc(N4CCN(C)CC4)cc3)nc2n1-c1cccc(C(C)(C)O)n1 + Cc1cnc(CNC(=O)c2c(=O)c3ccc(N4CCCN(C)CC4)nc3n3c2sc2ccccc23)cn1 | 521955-158-R2-J5-PDC complex spheroid viability | Y
COc1ncnc(C2CC2)c1-c1ncc2cnn(Cc3ccc(-c4nc(C(F)(F)F)cn4C(C)C)cc3)c2n1 + Cc1cnc(CNC(=O)c2c(=O)c3ccc(N4CCCN(C)CC4)nc3n3c2sc2ccccc23)cn1 | 521955-158-R2-J5-PDC complex spheroid viability | Y
O=c1[nH]cc(F)c(=O)[nH]1 + CN(C)c1ccc(Nc2c3ccc(NC(=O)CCN4CCCC4)cc3nc3cc(NC(=O)CCN4CCCC4)ccc23)cc1 | 521955-158-R2-J5-PDC complex spheroid viability | N
CCc1c2c(nc3ccc(O)cc13)-c1cc3c(c(=O)n1C2)COC(=O)[C@]3(O)CC + Cc1[nH]c2ccc(F)cc2c1-c1nc2c3cccnc3c3ncccc3c2[nH]1 | 521955-158-R2-J5-PDC complex spheroid viability | Y
C=CC(=O)N1CCN(c2nc(=O)n(-c3c(C)ccnc3C(C)C)c3nc(-c4c(O)cccc4F)c(F)cc23)C(C)C1 (stereo not drawn) + Cc1cnc(CNC(=O)c2c(=O)c3ccc(N4CCCN(C)CC4)nc3n3c2sc2ccccc23)cn1 | 521955-158-R2-J5-PDC complex spheroid viability | Y
CC(=O)O[C@H]1C(=O)[C@@]2(C)[C@H]([C@H](OC(=O)c3ccccc3)[C@]3(O)C[C@H](OC(=O)[C@H](O)[C@@H](NC(=O)c4ccccc4)c4ccccc4)C(C)=C1C3(C)C)[C@]1(OC(C)=O)CO[C@@H]1C[C@@H]2O + CN(C)c1ccc(Nc2c3ccc(NC(=O)CCN4CCCC4)cc3nc3cc(NC(=O)CCN4CCCC4)ccc23)cc1 | 521955-158-R2-J5-PDC complex spheroid viability | Y
CCCS(=O)(=O)Nc1ccc(F)c(C(=O)c2c[nH]c3ncc(-c4ccc(Cl)cc4)cc23)c1F + CN(C)c1ccc(Nc2c3ccc(NC(=O)CCN4CCCC4)cc3nc3cc(NC(=O)CCN4CCCC4)ccc23)cc1 | 521955-158-R2-J5-PDC complex spheroid viability | N
C#Cc1c(F)ccc2cc(O)cc(-c3ncc4c(N5CC6CCC(C5)N6)nc(OCC56CCCN5CC(F)C6)nc4c3F)c12 (stereo not drawn) + Cc1[nH]c2ccc(F)cc2c1-c1nc2c3cccnc3c3ncccc3c2[nH]1 | 521955-158-R2-J5-PDC complex spheroid viability | N
O=C(NO)c1cnc(N2CCN(S(=O)(=O)c3ccc4ccccc4c3)CC2)nc1 + Cc1[nH]c2ccc(F)cc2c1-c1nc2c3cccnc3c3ncccc3c2[nH]1 | 521955-158-R2-J5-PDC complex spheroid viability | N
CC[C@@]1(O)C(=O)OCc2c1cc1n(c2=O)Cc2cc3c(CN(C)C)c(O)ccc3nc2-1 + CN(C)c1ccc(Nc2c3ccc(NC(=O)CCN4CCCC4)cc3nc3cc(NC(=O)CCN4CCCC4)ccc23)cc1 | 521955-158-R2-J5-PDC complex spheroid viability | N
Cc1[nH]c2ccccc2c1CCNCc1ccc(/C=C/C(=O)NO)cc1 + Cc1[nH]c2ccc(F)cc2c1-c1nc2c3cccnc3c3ncccc3c2[nH]1 | 521955-158-R2-J5-PDC complex spheroid viability | N
CCc1c2c(nc3ccc(O)cc13)-c1cc3c(c(=O)n1C2)COC(=O)[C@]3(O)CC + Cc1cnc(CNC(=O)c2c(=O)c3ccc(N4CCCN(C)CC4)nc3n3c2sc2ccccc23)cn1 | 521955-158-R2-J5-PDC complex spheroid viability | Y
O=C(c1cc(Cc2n[nH]c(=O)c3ccccc23)ccc1F)N1CCN(C(=O)C2CC2)CC1 + CN(C)c1ccc(Nc2c3ccc(NC(=O)CCN4CCCC4)cc3nc3cc(NC(=O)CCN4CCCC4)ccc23)cc1 | 521955-158-R2-J5-PDC complex spheroid viability | N
